Attribution: the supplement of paper PMC10567573

B1: ZNF263 (parent)
chain: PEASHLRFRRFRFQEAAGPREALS

Variants of: B1
PROTOCOL_DETAILS: protein stability index of a GFP-peptide fusion (GPS, HEK-293T) (PSI 1-6); higher = more stable;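 note: lentivirally expressed fusions sorted by FACS into six bins by GFP to DsRed ratio, PSI derived from sequencing read proportions per bin multiplied by bin number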
CONDITION_LABEL: c terminus: a fixed tail appended
Answer each item with its documented protein stability index.
Answer with the value's number alone.

q: Form field: reported protein stability index of A3N
a: 1.98

q: Please do the same for L23N as well.
a: 3.15

q: Let us now turn to R20S
a: 2.58

q: Field entry: F11D
a: 3.66

q: // same read-out, input: R9I
a: 1.69

q: Likewise for P1T ?
a: 2.44

q: Next variant up: R12F
a: 2.19

q: Now the variant P19L
a: 1.95

q: Same read-out for G18T ?
a: 2.97

q: How about this variant: H5Y
a: 1.95

q: // same read-out, input: R12Y
a: 2.4
